biological target: PI 3-kinase beta (Homo sapiens); test: Kinase Glo Luminescent Kinase Assay (Kglo), assay B; assay type: biochemical; details: read-out: Assay B PI3Kβ IC50
Sequence (P42338 whole entry): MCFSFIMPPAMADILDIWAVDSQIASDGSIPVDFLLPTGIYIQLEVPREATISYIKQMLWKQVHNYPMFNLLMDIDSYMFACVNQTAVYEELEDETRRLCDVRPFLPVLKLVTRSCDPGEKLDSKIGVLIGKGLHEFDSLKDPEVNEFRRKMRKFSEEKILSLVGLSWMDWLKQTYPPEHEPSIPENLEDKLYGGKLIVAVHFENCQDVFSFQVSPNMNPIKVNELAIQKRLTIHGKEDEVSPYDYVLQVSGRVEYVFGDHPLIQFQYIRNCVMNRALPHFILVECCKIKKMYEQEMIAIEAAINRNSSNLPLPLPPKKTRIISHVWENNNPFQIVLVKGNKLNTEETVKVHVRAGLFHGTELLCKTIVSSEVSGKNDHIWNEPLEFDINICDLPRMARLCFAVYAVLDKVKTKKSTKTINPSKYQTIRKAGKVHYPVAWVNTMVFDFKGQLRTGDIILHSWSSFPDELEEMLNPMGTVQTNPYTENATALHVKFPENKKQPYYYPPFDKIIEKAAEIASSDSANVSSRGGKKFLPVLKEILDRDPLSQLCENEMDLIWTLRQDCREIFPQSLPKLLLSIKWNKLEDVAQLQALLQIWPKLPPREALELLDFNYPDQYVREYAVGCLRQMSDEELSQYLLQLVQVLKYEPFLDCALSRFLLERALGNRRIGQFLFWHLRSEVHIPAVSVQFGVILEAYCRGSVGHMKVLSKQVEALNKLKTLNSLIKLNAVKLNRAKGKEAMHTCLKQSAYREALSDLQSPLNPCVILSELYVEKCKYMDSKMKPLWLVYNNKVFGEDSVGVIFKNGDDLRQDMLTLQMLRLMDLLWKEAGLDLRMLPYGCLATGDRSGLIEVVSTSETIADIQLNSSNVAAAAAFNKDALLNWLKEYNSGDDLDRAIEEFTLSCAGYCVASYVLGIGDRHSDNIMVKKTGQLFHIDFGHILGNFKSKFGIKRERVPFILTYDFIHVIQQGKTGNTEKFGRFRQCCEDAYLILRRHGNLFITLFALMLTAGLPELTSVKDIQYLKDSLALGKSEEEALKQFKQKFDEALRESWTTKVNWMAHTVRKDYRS
Sequence (P27986 461-568 partner): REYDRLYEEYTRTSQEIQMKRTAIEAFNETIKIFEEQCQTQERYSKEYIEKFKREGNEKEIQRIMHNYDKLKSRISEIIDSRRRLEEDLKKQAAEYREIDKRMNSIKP
Consider the following compounds; for each one, report its pIC50.
The read-out pIC50 is expressed as -log10 of concentration in moles per litre.

Please look at this compound and report its pIC50: Cc1ncc(-c2nc(-c3cc(S(=O)(=O)NCCC(C)(C)O)ccc3C)cnc2N)o1 [Example 119.40]
5.46

Read the entry Cc1ccc(S(=O)(=O)NC2CCC(CO)CC2)cc1-c1cnc(N)c(-n2cncn2)n1 (centres unmarked) [Example 127.6] and write its reported pIC50.
5.66

State its pIC50: Cc1ccc(S(=O)(=O)NC2CCC2)cc1-c1cnc(N)c(-n2cncn2)n1 [Example 127.54]
5.96

Look up and report measured pIC50 for this entry: Cc1csc(-c2nc(-c3cc(S(=O)(=O)NCC(C)(C)O)ccc3C)cnc2N)n1 [Example 80]
5.77

Could you please provide reported pIC50 for CC(C)(O)CNS(=O)(=O)c1cccc(-c2cnc(N)c(-n3cncn3)n2)c1 [Example 123] ? Thanks!
5.26

Assign pIC50 to the following record: Cc1ccc(S(=O)(=O)NCCF)cc1-c1cnc(N)c(-n2cncn2)n1 [Example 127.28]
5.29

Name the recorded pIC50 of the item Cc1ccc(S(=O)(=O)NC(C)CO)cc1-c1cnc(N)c(-n2cncn2)n1 (centres unmarked) [Example 127.42] in your answer.
5.23

---

target: PI 3-kinase beta (Homo sapiens, UniProt P42338); assay: Cellular assay I1, p-Akt (S473) in Rat-1 cells, Surefire format; assay type: cell-based; conditions: non-asterisked data: version I1 (Surefire format), Rat-1 cells; read-out: Assay I PI3Kβ IC50
Sequence (P42338 whole entry): as the sequence (P42338 whole entry) above
Sequence (Q63787 whole entry partner): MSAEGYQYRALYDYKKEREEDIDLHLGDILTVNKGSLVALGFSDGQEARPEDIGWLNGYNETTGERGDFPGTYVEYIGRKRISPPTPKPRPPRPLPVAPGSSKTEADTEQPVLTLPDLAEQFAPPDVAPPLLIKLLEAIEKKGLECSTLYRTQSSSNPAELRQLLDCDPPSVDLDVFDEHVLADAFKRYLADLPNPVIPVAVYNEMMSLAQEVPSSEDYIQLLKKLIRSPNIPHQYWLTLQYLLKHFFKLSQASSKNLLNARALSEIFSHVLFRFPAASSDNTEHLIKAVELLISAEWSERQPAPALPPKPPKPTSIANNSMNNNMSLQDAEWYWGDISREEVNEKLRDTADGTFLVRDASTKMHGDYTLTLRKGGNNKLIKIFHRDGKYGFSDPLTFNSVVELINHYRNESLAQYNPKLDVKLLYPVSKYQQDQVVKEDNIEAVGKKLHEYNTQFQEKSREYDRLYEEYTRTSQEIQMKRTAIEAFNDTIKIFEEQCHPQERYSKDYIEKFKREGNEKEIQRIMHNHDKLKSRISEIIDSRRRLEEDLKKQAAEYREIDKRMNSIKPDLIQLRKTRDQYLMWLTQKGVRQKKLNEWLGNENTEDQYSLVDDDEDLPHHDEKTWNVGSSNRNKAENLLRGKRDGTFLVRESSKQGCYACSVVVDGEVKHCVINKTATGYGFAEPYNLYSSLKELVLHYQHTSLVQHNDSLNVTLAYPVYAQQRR
Hi there, I'd appreciate the recorded pIC50 for every entry that follows.
Scale: pIC50 equals -log10([C]), with [C] in mol/L.

Consider the compound Cc1ncc(-c2nc(-c3cc(S(=O)(=O)NC[C@H]4C[C@@H](O)C4)ccc3C)cnc2N)s1 [Example 20a] and give its recorded pIC50.
5.84

Kindly indicate its recorded pIC50. Item: Cc1ccc(S(=O)(=O)NOCC(C)(C)O)cc1-c1cnc(N)c(-c2cn(C)nc2C)n1
5.46

Using known records, supply pIC50 for Cc1ccc(S(=O)(=O)NCCC(C)(C)O)cc1-c1cnc(N)c(-c2ccoc2)n1
5.13

Please list pIC50 recorded for the compound Cc1ccc(S(=O)(=O)NCCC(C)(C)O)cc1-c1cnc(N)c(-c2cscn2)n1
5.52

Please give the documented pIC50 of Cc1ccc(S(=O)(=O)N2CC(CO)C2)cc1-c1cnc(N)c(-n2cncn2)n1
5.04

Please indicate pIC50 recorded for CCc1noc(-c2nc(-c3cc(S(=O)(=O)N[C@H]4CC[C@H](O)CC4)ccc3C)cnc2N)n1
5.10

Provide measured pIC50 value, entry: COc1ccncc1-c1nc(-c2cc(S(=O)(=O)NCCC(C)(C)O)ccc2C)cnc1N
5.39

Return the recorded pIC50 value; entry: Cc1ncc(-c2nc(-c3cc(S(=O)(=O)NCCCO)c(F)cc3C)cnc2N)s1
5.45

Write down pIC50 measured for item Cc1ccc(S(=O)(=O)NCC2(C)COC2)cc1-c1cnc(N)c(-n2cncn2)n1
5.09

Answer with the recorded pIC50 for the compound listed here: Cc1ccc(S(=O)(=O)NCCC(C)(C)O)cc1-c1cnc(N)c(-c2ccc(F)nc2)n1
5.35

Report pIC50, nothing else, for this compound: Cc1ccc(S(=O)(=O)NCCC(C)(C)O)cc1-c1cnc(N)c(-c2cnn(Cc3ccncc3)c2)n1
5.67

Identify the reported pIC50 for the following entry. Cc1ccc(S(=O)(=O)NCC2(C(N)=O)CC2)cc1-c1cnc(N)c(-n2cncn2)n1
5.45

For the compound Cc1ccc(S(=O)(=O)NCC(C)(C)CO)cc1-c1cnc(N)c(-n2cncn2)n1 , report pIC50.
5.27

Identify measured pIC50 associated with Cc1cc(F)c(S(=O)(=O)NCC(C)(C)O)cc1-c1cnc(N)c(-n2cncn2)n1
5.83

For Cc1ccc(S(=O)(=O)NCCC(C)(C)O)cc1-c1cnc(N)c(-c2nc(C3CC3)no2)n1 , write its pIC50.
5.22

Quickly give me recorded pIC50 for Cc1ccc(S(=O)(=O)NCC2(CO)COC2)cc1-c1cnc(N)c(-c2cn(C)nc2C)n1
5.00

Using known records, supply pIC50 for Cc1ccc(S(=O)(=O)N[C@H]2CC[C@@](C)(O)CC2)cc1-c1cnc(N)c(-n2cncn2)n1 [Example 69b]
5.07

Please look at this compound and report its pIC50: Cc1noc(-c2nc(-c3cc(S(=O)(=O)NCCC(C)(C)O)ccc3C)cnc2N)n1
5.08

Fill in pIC50 for record Cc1ccc(S(=O)(=O)NC[C@H]2C[C@@H](O)C2)cc1-c1cnc(N)c(-c2nc(C3CC3)no2)n1
5.05

Give a short answer stating reported pIC50 for Cc1ccc(S(=O)(=O)NCCC(C)(C)O)cc1-c1cnc(N)c(-c2ccncc2)n1 .
5.03

Quick one: give measured pIC50 for Cc1cncc(-c2nc(-c3cc(S(=O)(=O)NCCC(C)(C)O)ccc3C)cnc2N)c1
5.39

Note pIC50 for the compound shown: Cc1ccc(S(=O)(=O)N[C@H]2CC[C@](C)(O)CC2)cc1-c1cnc(N)c(-n2cncn2)n1 [Example 69a]
5.35
